Origin of measurements: paper PMC5540273

# System: QSK
# settings: concentration: 1 μM, replicates: in singlicate; n = 1;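 also: KINOMEscan kinase panel screen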
valueKind: %Inh (%)
Numbers only, in %.

Some compounds with recorded %Inh:
> print(dat)
                      structuresmilesstring  recordedresult
1  FC(F)(F)c1ccccc1-c1cc(-c2c[nH]nc2-c2ccccn2)ccn1               0
2  CN1c2ccc(-c3ccc(C(N)=O)cc3)cc2-c2[nH]ncc2S1(=O)=O              14
3  CNc1nc(-c2ccc3c(N)n[nH]c3c2)cc(N2C[C@@H](C(=O)NC3CCCCC3)OC[C@H]2C)n1               0
4               c1ccc(-c2ccnc3[nH]ccc23)cc1              15

// O=C1NC(=O)C(c2ccc(Cl)cc2)=C1Nc1ccc(O)cc1 : %Inh value = 0

* * *

# Tested on: MST1R
# settings: concentration: 1 μM, replicates: in singlicate; n = 1
Provide the recorded %Inh for the entries that follow.
Give bare numbers, in %.

Some compounds with recorded %Inh:
> print(dat)
                                   compound  recordedresult
1  CS(=O)(=O)CCNCc1nc(-c2ccc3ncnc(Nc4ccc5c(cnn5Cc5ccccc5)c4)c3c2)cs1.Cl.Cl              10
2  Nc1ncnc2occ(-c3ccc4c(c3)CCN4C(=O)Cc3cc(F)ccc3F)c12              11
3  Cc1ccc(NC(=O)Nc2ccc(Cl)cc2)cc1-c1ccc(C(=O)Nc2ccncc2)cc1              20
4  CC(=O)c1cccc(NC(=O)NC2CCN(c3ccnc(Nc4ccc(F)cc4)n3)C2)c1 (stereo not shown)              31
5      COc1cc2ncnc(Nc3cccc(Br)c3)c2cc1OC.Cl              30
6  COc1ccc2cc(-c3nc(-c4ccccc4C(C)C)[nH]c3-c3ccncc3)ccc2c1              42
7      CSc1ccc(-c2nc3n(c2-c2ccncc2)CCC3)cc1               0
8  CS(=O)(=O)CCNCc1nc(-c2ccc3ncnc(Nc4ccc(OCc5ccccc5)c(Cl)c4)c3c2)cs1.Cl              14
9  Cc1ccccc1-c1cc(-c2c[nH]nc2-c2ccccn2)ccn1              12

// CC[C@@H]1CO[C@H](C(=O)Nc2ccccc2)CN1c1cc(-c2ccc3c(N)n[nH]c3c2)nc(NC)n1 : %Inh value = 26

* * *

# Tested on: SGK2
# settings: concentration: 1 μM, replicates: in singlicate; n = 1
valueKind: %Inh
Give your result as the value with the unit written after it.

Some molecules with recorded %Inh:
> print(dat)
                                   molecule  recordedresult
1  Cc1c(Cn2c3ccccc3n3c(=O)cc(N4CCOCC4)nc23)cccc1C(F)(F)F              0%
2    CC(C)c1cc(-c2ccc3c(N)n[nH]c3c2)nc(N)n1              0%
3  O=C(Nc1n[nH]c2nc(-c3cccs3)c(Br)cc12)C1CC1             27%

Dear colleague, could you please provide %Inh for the molecules listed below?
1. COc1nccc(-c2c(-c3ccc(F)cc3)ncn2CCCN2CCOCC2)n1
2. Nc1cccc(-c2ccc3c(N)n[nH]c3c2)n1
3. COc1ccc(Nc2nccc(N3CCC(NC(=O)c4cc5ccccc5s4)C3)n2)cc1 (stereo not drawn)
4. Fc1ccc(-c2nc[nH]c2-c2ccncc2)cc1
5. CNc1nc(-c2ccc3c(N)n[nH]c3c2)cc(N2C[C@@H](C(=O)NC3CCCCC3)OC[C@H]2C)n1
6. CC(=O)c1cccc(NC(=O)NC2CCN(c3ccnc(Nc4ccc(F)cc4)n3)C2)c1 (stereo not drawn)

1: 36%; 2: 6%; 3: 0%; 4: 0%; 5: 0%; 6: 0%
